- TEST_PROTOCOL: protease stability score; higher = more stable; yeast display proteolysis, trypsin and chymotrypsin
Examples of sequences with documented protease stability score follow.
Please give the numeric answer without any surrounding text.

Solved cases (2 shown):
SEDQEESEKFLKDLIRVILTGNEESLMKLADPHARFHIGDKTYIGWDKWVRMLSERVRDLGIRIEIRVHDFHVYNGVAENDHRHHVHFENHEYNHIMILHDDKINGKWTIRTLVIK : 1.13
DERHRYMKLFLDIFLHLYQTGDWDKLEHLADPHVKLIFENHELHGRDSFFRFILEWLRHMGVNHVEFHNIHYDLVGDKVHLEVRLIVFINGRIHHVIIHIIAEKIDGKWHLRSHEIRHE : 1.34

Here is the next item to consider.
## Input What value of measured protease stability score is listed for `DELEHRSQEAIEHIVHSMQTGNEEEIERNMDPNARIRVGNYHLHGRKEAVRWFNFFLTELRIHDIHIHDVKSQGEWIHIDGHIRGQINGQEHSVRTHIIVYKINGKWHDTSYHLS` ?
## Output 0.723

----------
- TEST_PROTOCOL: protease stability score; higher = more stable; yeast display proteolysis, trypsin and chymotrypsin
READOUT_KIND: protease stability score
Please give the numeric answer without any surrounding text.

Solved cases (2 shown):
TEEEQLLKEFAELYLRNWWTGNEDKLLELADPHARSVVNGREIHGRENMYKLIRLWLERFKNIQIHYDDVKFQGNYVKLHGHMTVGDKTTHIIIHILVIDGVIKELSLEVN : 1.56
DELEKLLRYWLREFFDALLTGDEEIFTRYMDPEARLIVDGVEYHGREEVLKHLRDKLREIRIKDYVIHSLDFVNGRIHVDVRQDVVIGEKREKTRLHIHIDVIDGKNHELDIEWR : 2.1

Here is the next item to consider.
## Input What value of measured protease stability score is listed for `TEEKEDKDRWYEEVLRAVLTGDFHFLSRLADPDVRVEYGDKEHVGREEVSRFWQEFFERIKNVTIELHDYKVQGDKIHWLINLRFNGREHIVHIELIIIDGRIHEIRVQIR` ?
## Output 2.02

----------
- TEST_PROTOCOL: protease stability score; higher = more stable; yeast display proteolysis, trypsin and chymotrypsin;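 note: relative to predicted unfolded state with 0 unfolded-like and 1 meaning tenfold more protease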
Outcome: Condition met for protease stability score of at least 1; Condition not met for anything lower.

Study these solved cases before continuing.
DDNEETVERTFKYFIDSLRTGNEEDMYEMADPNVKIEIGDKRLHGREKFRDHMHELSRRADHIQVHLRIHDIQGEFLHLDVELILDVNGKELRIKVHFVAFKFNGRWRLRSMRQT : Condition met
HEDQERLKRFLEFYVHLINTGDEDRIRDLIDPHARVDIDGRIYHGREMYTQAYRDLGIDYLEIKRWEIQGDKVHLDTRVHIDGVERQTHLIIMKFNGRWIVHTMEVQ : Condition met
HEEEKQMREAVEEAYHVLRTGDEKTIRELADPDVRLDINGKEIIGRELFFRHLWYEFYFFKNMRITIKHYEIQGEKVHIHIEIDWNGKELRSHMEVDKVDGRWLLHSVIFR : Condition not met
DESKEVSEDALRIMIELIKTGDEHLLQRYIDPDVRVDVNGRHTHGWHWVVRQIFEEIKRVDHMRIHLDSERVFNGRVHLDVTIHVHINGVEIDIKITLTFHKFDGRWLFHHIKHK : Condition not met
HEEHDEMQEALRRFIDILHTGDEKERKELADPHVRIDVDGVDHHGREWLTKWTVRLAREMRIHPEIKHSEVFNGQIELHTSEKVDFNGVHEIIESFLLVIKINGRWFLTHVQVH : Condition not met

Now turn to the next sequence.
## Input Say whether `DKEDEDMERIVKEFLHLHLTGDWKLMAELLDPDVRVEFDGKRYHGRENWSKLLEDEFRRIKNATIRIEIKHIDLQGDFARSEVVLHIIVNGVEHRHEMQIDMKVVNGRIHSIRIVRV` shows protease stability score of 1 or more.
## Output Condition met

----------
- TEST_PROTOCOL: protease stability score; higher = more stable; yeast display proteolysis, trypsin and chymotrypsin;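 note: relative to predicted unfolded state with 0 unfolded-like and 1 meaning tenfold more protease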
READOUT_KIND: protease stability score
Please give the numeric answer without any surrounding text.

HEEEHDLKEVIRLFLELIDTGDEDVLERLADPNMRVIQGDKTIHGREEVRRTMQEDAKRIDHFEFRLRRVRVINGRLEVDGEFIERAEGHEFRSRVNIMLVKVNGRWVLKIIELR : 1.65
DELERILKEQAETIMHFWRTGDEESFNHMADPDYWLRVGDKNVHGREKASEYLRHWLEHIRIHDVKIRDKRVFNGRVFIDMREDGNVDGKRTTRTLHVIIVSIDGKITMVEIRLE : 0.996
SEEEKVIWDIFQDWVRAYHTGNEDLIEHLMDPHVRLDINGKEKHGREWVRYHLHELREHIRTKEYEVHHFDVVDGRAHADYEFHVEYNGREFYRRTHIEIQIVNGKIRVINIRFE : 1.43

## Input What value of measured protease stability score is listed for `SHEDRWIEHMVDLLEELFHTGDWEHLRHLFDPNTRSNINGKEFHGRDLAIKLVVEKMEFFKGARTDVEHRHVQGEKVELIFRLEYNGRRFHLSIRLQVVNGRVKEVNVKIDTE` ?
## Output 1.67

## Input What value of measured protease stability score is listed for `DDEEKEHLEMLKQFWENSYTGDERTLLHLLDPHARFILEFNGKSLQYHGREEVARFLRWLLEHIRVKDSHIHDIDVIGEKAVVDGRMHGEIDGREVEKETRLFIVVIDGRITKVFIEVR` ?
## Output 1.6

----------
- TEST_PROTOCOL: protease stability score; higher = more stable; yeast display proteolysis, trypsin and chymotrypsin;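 note: relative to predicted unfolded state with 0 unfolded-like and 1 meaning tenfold more protease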
Outcome: 1.0 for protease stability score of at least 1; 0.0 for anything lower.

Study these solved cases before continuing.
TDEEELLHRILDEIEKALLTGDEDIIHRLFDPHVRFHVNGRHIVGRHEWSRWVNDHRKRFKNIQIRMRVEEKDVIDGRMHSRTKLHIIFNGVRYEITQEINIDVIDGRLKNVIVHDE : 0.0
SEEEEDTERAMELAHHLLFTGNWEIMLKLFDPHMRLEFNGVDNHGREQVIREIRERIKLLGITNIELEPEEVRVQGDKVILHSRVDYNGKHYETEFVAEKVDGRWFIRSMRYE : 1.0
SEEHKWVHMAFEVLLKVLKTGDEENVNRLFDPHVRVEWDGREIHGMETFTRELSHLRFKLDDFKLHHISVAEGRAIIHGRFHGRIEYGDKEHEFDSHVILFVLKVDGRWLIKKIEFR : 1.0

## Input Say whether `SEDQHDAEWALRLFVRLHETGDFEEIYRNADPNMRWFVNGVDSHGRENASKLLHKLMDDLGIDHVQIEHVELRVQGEKIIVHMRVTQVINGREVDSRIEVHMEKFDGKWELKHVELRIH` shows protease stability score of 1 or more.
## Output 1.0

## Input Say whether `DETTDEMDKSLERFLDVVRTGDEHEDVHLADPHARIEFENRDIHGMKEHASQRIRVMLKFGWEVHIKFRHLRQVDGRLDVRLELRIKFDGVLYHLDTNEYWRKFDGRWVLDSMEFH` shows protease stability score of 1 or more.
## Output 1.0

----------
- TEST_PROTOCOL: protease stability score; higher = more stable; yeast display proteolysis, trypsin and chymotrypsin;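 note: relative to predicted unfolded state with 0 unfolded-like and 1 meaning tenfold more protease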
Outcome: rule met for protease stability score of at least 2; rule not met for anything lower.

DERKHFFDIALEILKKTIKTGDEREHNENVDPRVKNDINGVELHGMETVSEFHLRLWEEMRVEEIHIRDLDIQGNKAVFHTSLRRRYNGRELEIELHYIVVKVNGRWFIQEIIIR : rule not met
DEDHKFAVEILRRLMEIWFTGNEEELKHLADPDYRLRVRINGKEITRHGMEQSREQIKRWIDRIDHYEIRIRHLEWQGDKSHSHTELHMRFDGVIKKFETRIIVIVIDGKVSEIIIEIN : rule not met
DDEDHELEWMYRIMLRILETGDEDEYKKFADPNTRLLIDFNGRIIDDHGREHVKRSIFEWLEHARIRRKEKKTERHIDGRVILHMRMDVDVNGRRIDRDVLIIIVVINGKFREVDIQYR : rule not met

## Input Say whether `SEDERDMEKASEDMLRNWMTGDFKSLHTLLDPHYRIDIDGQWHHGRDLWVEALRELLHQLGVERVEARERDFKIQGNKLESHIELRYNGRTIETDDLFIKIDGRWFIHSIHLRIR` shows protease stability score of 2 or more.
## Output rule not met

## Input Say whether `SEEEEWMEEFRERWERNFMTGDEDAMRELADPNVRIDIGEWDVHGREHLAELLKRHLDTLGINHVEFDHSTVIDGVIHIHMTINVNGKRIYSEVRLLVVNGKLKHSHYDIK` shows protease stability score of 2 or more.
## Output rule not met

## Input Say whether `DEEDEETREIAEMLHRWFITGDWKALMKYVDPNMRNIIHVNGRNIHTHGWKDMVKDLKDLGLENIHVDLKSISFQGDKAHIDGQLRVGDKEEKVEIHSEVVNGRIKRLEIRVH` shows protease stability score of 2 or more.
## Output rule not met

## Input Say whether `DEDFELAERFLEKWINVSRTGDEKKAHELVDPNVLINIGDKQIHGRERVVEWVSHIRIHHLEIHHFDVQGDKLIIDGRMDGTVNGRRVDHHIRIIISKVNGRWQTKTIDHE` shows protease stability score of 2 or more.
## Output rule not met

## Input Say whether `SEFEHRAHEVLEIMSNALHTGDEERMQKLMDPNVRIVIGDKENIGRETFMYWVKEIRFEIEIHIHRIDVINGRIHADTRLRIIIHYNGREHRDHFDVHFDIQKVDGRWVVHRIIVD` shows protease stability score of 2 or more.
## Output rule met

## Input Say whether `DEEEKAVKHAVERFVESTQTGNEHKLNELMDPNVRIDFNGVELIGREWFSKLLSEIRSDRFHIHDIRLQGEKADNDTREKGHVDGRTTEMTVRLIWIKFDGKWRLETVIFQ` shows protease stability score of 2 or more.
## Output rule not met

## Input Say whether `SEDEKRAKEFDERFNENLLTGNFEKLLHLADPNAKVFYNGQENHGMHLFLKWMVELLKQIRVEDVELDDYKIYGEKIVLDVTIHTRFDGQETEWKTRIITTKVDGRWVLKTVEIR` shows protease stability score of 2 or more.
## Output rule not met

## Input Say whether `SEDIKEIKDILRTMYEAFITGDWRTVAKLFDPHVRIEYDGVRLHGREHVEHFLRHLRERVEWHHIEDTQEQGDYIELHGRTILNIEIGDKRDRRDSHFILMMVKVDGRWLIHRIIIR` shows protease stability score of 2 or more.
## Output rule met

Measured values drawn from the NTF2 design screens of Basanta et al. (2020) for this set.
